Cited source for all entries: patent US20220204449A1

Target: human δ-opioid receptor, OPRD (Homo sapiens)
Construct: host or cells: HEK-293 overexpressing β-arrestin2 fused to a β-galactosidase fragment
Experiment: Dominant assay: cAMP assay with/without irreversible antagonist β-CNA, OPRD cell line
Type: cell-based
Settings: addition of β-CNA; repeated dominant assay, Example 4, Tables 8-10; read-out: OPRD Gi β-CNA (+) EC50
Listing of recorded pEC50 by entry.
Recall that pEC50 is obtained by taking minus log10 of the concentration measured in molar.

Would you please look over these solved cases?
{"compound": "CN(C)C(CNC(=O)Cc1ccc2c(c1)OCCO2)c1ccccc1 (single isomer, unassigned) [Compound 5]", "value-reported": 5.06}
{"compound": "CN(C)C(CNC(=O)Cc1ccc2c(c1)OCCO2)c1ccccc1 (racemic) [Compound 1]", "value-reported": 5.10}
{"compound": "Cc1ccccc1NC(=O)NCC(c1ccc2c(c1)CCO2)N(C)C (racemic) [Compound 3]", "value-reported": 5.35}
{"compound": "CN(C)C(CNC(=O)Cc1ccc2c(c1)OCCO2)c1ccccc1 (single isomer, unassigned) [Compound 4]", "value-reported": 5.00}
{"compound": "CN1CCc2cc(C(CNC(=O)Nc3ccc(F)cc3)N(C)C)ccc21 (single isomer, unassigned) [Compound 6]", "value-reported": 4.87}
{"compound": "CN1CCc2cc(C(CNC(=O)Nc3ccc(F)cc3)N(C)C)ccc21 (single isomer, unassigned) [Compound 7]", "value-reported": 5.46}
{"compound": "Cc1ccccc1NC(=O)NCC(c1ccc2c(c1)CCO2)N(C)C (single isomer, unassigned) [Compound 8]", "value-reported": 5.06}
{"compound": "Cc1ccccc1NC(=O)NCC(c1ccc2c(c1)CCO2)N(C)C (single isomer, unassigned) [Compound 9]", "value-reported": 5.23}

Pending compound:
Recorded pEC50 (compound CN1CCc2cc(C(CNC(=O)Nc3ccc(F)cc3)N(C)C)ccc21 (racemic) [Compound 2] ): 5.21

====

Target: human μ-opioid receptor, OPRM (Homo sapiens)
Construct: host or cells: HEK-293 overexpressing β-arrestin2 fused to a β-galactosidase fragment
Sequence (P35372 whole entry, the tested form may be a part): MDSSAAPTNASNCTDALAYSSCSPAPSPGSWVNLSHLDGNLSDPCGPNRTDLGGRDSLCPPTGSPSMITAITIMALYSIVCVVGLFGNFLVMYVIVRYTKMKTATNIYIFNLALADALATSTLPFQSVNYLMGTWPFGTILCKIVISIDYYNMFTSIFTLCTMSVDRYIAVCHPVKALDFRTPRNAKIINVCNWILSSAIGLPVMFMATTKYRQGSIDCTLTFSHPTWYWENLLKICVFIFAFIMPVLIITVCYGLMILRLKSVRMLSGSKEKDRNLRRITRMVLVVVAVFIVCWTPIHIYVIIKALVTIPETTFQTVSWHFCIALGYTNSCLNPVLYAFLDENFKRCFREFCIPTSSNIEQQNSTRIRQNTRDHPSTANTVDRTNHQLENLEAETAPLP
Assay: Dominant assay: cAMP assay with/without irreversible antagonist β-FNA, OPRM cell line
Format: cell-based
Conditions: addition of β-FNA; repeated dominant assay, Example 4, Tables 8-10
# OPRM Gi β-FNA (+) Emax (%) per record follows
The figure you give is taken to be in %; do not add the unit.

{"compound": "Cc1ccccc1NC(=O)NCC(c1ccc2c(c1)CCO2)N(C)C (single isomer, unassigned)", "value-reported": 74.49}
{"compound": "CN1CCc2cc(C(CNC(=O)Nc3ccc(F)cc3)N(C)C)ccc21 (single isomer, unassigned)", "value-reported": 90.07}

Sample CN(C)C(CNC(=O)Cc1ccc2c(c1)OCCO2)c1ccccc1 (single isomer, unassigned) [Compound 5] , system: human μ-opioid receptor, OPRM (Homo sapiens). Its OPRM Gi β-FNA (+) Emax (%) is 77.98

Measured OPRM Gi β-FNA (+) Emax (%) for this entry CN(C)C(CNC(=O)Cc1ccc2c(c1)OCCO2)c1ccccc1 (single isomer, unassigned) [Compound 4] on human μ-opioid receptor, OPRM (Homo sapiens): 45.02

====

As shown below, each of these molecules has a reported Emax value.
Target: human δ-opioid receptor, OPRD (Homo sapiens, UniProt P41143)
Construct: host or cells: HEK-293 overexpressing β-arrestin2 fused to a β-galactosidase fragment
Sequence (P41143 whole entry, the tested form may be a part): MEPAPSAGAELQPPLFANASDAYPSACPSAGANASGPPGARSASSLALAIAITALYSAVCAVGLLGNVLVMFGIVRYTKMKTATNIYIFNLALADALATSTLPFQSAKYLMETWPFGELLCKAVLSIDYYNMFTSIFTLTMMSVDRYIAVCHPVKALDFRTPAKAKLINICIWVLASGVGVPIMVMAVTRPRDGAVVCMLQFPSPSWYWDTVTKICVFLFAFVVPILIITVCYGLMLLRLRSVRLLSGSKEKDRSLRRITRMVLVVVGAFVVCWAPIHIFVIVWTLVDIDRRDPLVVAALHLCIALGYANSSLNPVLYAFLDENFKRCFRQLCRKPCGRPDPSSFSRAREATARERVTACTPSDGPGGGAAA
Assay: Dominant assay: cAMP assay with/without irreversible antagonist β-CNA, OPRD cell line
Type: cell-based
Settings: no addition of β-CNA; repeated dominant assay, Example 4, Tables 8-10; read-out: OPRD Gi β-CNA (−) Emax (%)
Remember to quote the unit after the number.

Worked set:
{"molecule": "CN(C)C(CNC(=O)Cc1ccc2c(c1)OCCO2)c1ccccc1 (racemic) [Compound 1]", "value-reported": "104%"}
{"molecule": "CN1CCc2cc(C(CNC(=O)Nc3ccc(F)cc3)N(C)C)ccc21 (racemic) [Compound 2]", "value-reported": "100%"}
{"molecule": "CN1CCc2cc(C(CNC(=O)Nc3ccc(F)cc3)N(C)C)ccc21 (single isomer, unassigned) [Compound 6]", "value-reported": "102%"}
{"molecule": "Cc1ccccc1NC(=O)NCC(c1ccc2c(c1)CCO2)N(C)C (racemic)", "value-reported": "100%"}

Query molecule follows.
The molecule listed as CN(C)C(CNC(=O)Cc1ccc2c(c1)OCCO2)c1ccccc1 (single isomer, unassigned) [Compound 4] has a reported Emax of 100%

====

Molecular target: human μ-opioid receptor, OPRM (Homo sapiens)
Construct: host or cells: HEK-293 overexpressing β-arrestin2 fused to a β-galactosidase fragment
Test: cAMP accumulation assay (Gi pathway), OPRM cell line
Type: cell-based
Conditions: Table 1; cAMP concentration-response curve
value-type: OPRM Gi Hill slope
// no unit, no text: just the number

Entry Cc1ccccc1NC(=O)NCC(c1ccc2c(c1)CCO2)N(C)C (racemic) , human μ-opioid receptor, OPRM (Homo sapiens) data, OPRM Gi Hill slope value: 1.48

Log: human μ-opioid receptor, OPRM (Homo sapiens), compound COc1ccsc1CNCC[C@@]1(c2ccccn2)CCOC2(CCCC2)C1 [TRV130, reference compound] , OPRM Gi Hill slope = 0.35

Measured OPRM Gi Hill slope for this entry CN(C)C(CNC(=O)Cc1ccc2c(c1)OCCO2)c1ccccc1 (racemic) on human μ-opioid receptor, OPRM (Homo sapiens): 0.99

The value of OPRM Gi Hill slope recorded for CN1CCc2cc(C(CNC(=O)Nc3ccc(F)cc3)N(C)C)ccc21 (racemic) when tested on human μ-opioid receptor, OPRM (Homo sapiens) reads 0.94

====

Measured EC50 values are reported for all entries that follow.
Molecular target: human μ-opioid receptor, OPRM (Homo sapiens)
Construct: host or cells: HEK-293 overexpressing β-arrestin2 fused to a β-galactosidase fragment
Assay: Dominant assay: cAMP assay with/without irreversible antagonist β-FNA, OPRM cell line
Assay type: cell-based
Details: no addition of β-FNA; Example 3, Tables 5-7; read-out: OPRM Gi β-FNA (−) EC50
Kindly provide the numeric value in nM only, without the unit symbol.

Illustrative cases are given below, each with its answer.
{"compound": "CN(C)C(CNC(=O)Cc1ccc2c(c1)OCCO2)c1ccccc1 (single isomer, unassigned) [Compound 4]", "target-or-system": "human μ-opioid receptor, OPRM (Homo sapiens)", "EC50 / nM": 20000}
{"compound": "CN1CCc2cc(C(CNC(=O)Nc3ccc(F)cc3)N(C)C)ccc21 (single isomer, unassigned) [Compound 6]", "target-or-system": "human μ-opioid receptor, OPRM (Homo sapiens)", "EC50 / nM": 519}

Entry CN(C)C(CNC(=O)Cc1ccc2c(c1)OCCO2)c1ccccc1 (single isomer, unassigned) [Compound 5] , tested on human μ-opioid receptor, OPRM (Homo sapiens), has a reported EC50 of 292

====

# OPRD β-ARR2 Emax (%) per entry
Molecular target: human δ-opioid receptor, OPRD (Homo sapiens, UniProt P41143)
Construct: host or cells: HEK-293 overexpressing β-arrestin2 fused to a β-galactosidase fragment
Assay: PathHunter β-arrestin 2 assay, OPRD cell line
Format: cell-based
Details: Example 3, Tables 5-7
Give your result in % as a bare value.

As a guide, the following entries are already answered.
{"molecule": "C[C@@H](Cc1ccsc1)NC(=O)NC[C@H](Cc1ccc(O)cc1)N(C)C [PZM21, reference compound]", "unit": "%", "OPRD β-ARR2 Emax (%)": 3.41}
{"molecule": "Cc1ccccc1NC(=O)NCC(c1ccc2c(c1)CCO2)N(C)C (single isomer, unassigned) [Compound 9]", "unit": "%", "OPRD β-ARR2 Emax (%)": 16.1}
{"molecule": "Cc1ccccc1NC(=O)NCC(c1ccc2c(c1)CCO2)N(C)C (single isomer, unassigned) [Compound 8]", "unit": "%", "OPRD β-ARR2 Emax (%)": 5.1}
{"molecule": "CN(C)C(CNC(=O)Cc1ccc2c(c1)OCCO2)c1ccccc1 (single isomer, unassigned) [Compound 4]", "unit": "%", "OPRD β-ARR2 Emax (%)": 2.8}
{"molecule": "CN1CCc2cc(C(CNC(=O)Nc3ccc(F)cc3)N(C)C)ccc21 (single isomer, unassigned)", "unit": "%", "OPRD β-ARR2 Emax (%)": 6.4}

Per the record, CN(C)C(CNC(=O)Cc1ccc2c(c1)OCCO2)c1ccccc1 (single isomer, unassigned) [Compound 5] has OPRD β-ARR2 Emax (%) of 5.7

====

List of Emax values.
Molecular target: human δ-opioid receptor, OPRD (Homo sapiens, UniProt P41143)
Construct: host or cells: HEK-293 overexpressing β-arrestin2 fused to a β-galactosidase fragment
Experiment: cAMP accumulation assay (Gi pathway), OPRD cell line
Format: cell-based
Conditions: Table 1; cAMP; normalized to reference agonist SNC80
# value in %; strip the unit string

{"compound": "COc1ccsc1CNCC[C@@]1(c2ccccn2)CCOC2(CCCC2)C1 [TRV130, reference compound]", "unit": "%", "Emax": 63.4}
{"compound": "CN1CCc2cc(C(CNC(=O)Nc3ccc(F)cc3)N(C)C)ccc21 (racemic)", "unit": "%", "Emax": 92.4}
{"compound": "Cc1ccccc1NC(=O)NCC(c1ccc2c(c1)CCO2)N(C)C (racemic)", "unit": "%", "Emax": 94.6}

Now consider the entry below.
Given item CN(C)C(CNC(=O)Cc1ccc2c(c1)OCCO2)c1ccccc1 (racemic) , the value recorded as its Emax is 88.9
